Field: strain 5 MIC. Provide a value for each of the molecules that follow.
- System: M. morganii 126/3048
- test-protocol: MIC determination, broth microdilution (CLSI)
- Format: cell-based
- experimental-setup: strain 5
Enter your answer as a number in mg/L; do not include the unit.

# input Given the entry CC1(C)[C@H](NC(=O)/C(=N\OCC(Oc2ccc(C(=N)N)cc2)C(=O)O)c2csc(N)n2)C(=O)N1OS(=O)(=O)O (single isomer, unassigned) [Example 87B] , report its measured strain 5 MIC.
# output 0.25

# input Would you mind doing CC1(C)[C@H](NC(=O)/C(=N\OC(CO)COc2ccc(C(=N)N)cc2)c2csc(N)n2)C(=O)N1OS(=O)(=O)O (mixture of isomers) [Example 45A] as well?
# output 0.5

# input Would you mind doing CC1(C)[C@H](NC(=O)/C(=N\OC(COc2ccc(C(=N)NCCN)cc2)C(=O)O)c2csc(N)n2)C(=O)N1OS(=O)(=O)O (mixture of isomers) [Example 44B] as well?
# output 4

###

Field: log10 of MIC. Provide a value for each of the compounds that follow.
- Test system: P. aeruginosa 2297 (AmpC wt)
- test-protocol: MIC determination, broth microdilution (CLSI)
- Assay type: cell-based
- experimental-setup: Pseudomonas aeruginosa, strain 7
Base-10 log of MIC, unit µg/mL.

# input Given the entry `C[C@H]1[C@H](NC(=O)/C(=N\OCCOc2nnc(C(=N)N)s2)c2csc(N)n2)C(=O)N1S(=O)(=O)O` , report its measured log10 of MIC.
# output 1.51

# input Would you mind doing `C[C@H]1[C@H](NC(=O)/C(=N\OCCOc2ccc(CC(=N)N)cc2)c2csc(N)n2)C(=O)N1S(=O)(=O)O` as well?
# output 0.90

# input Would you mind doing CC1(C)[C@H](NC(=O)/C(=N\O[C@@H](COc2ccc(C(=N)NC3CCCNC3)cc2)C(=O)O)c2csc(N)n2)C(=O)N1OS(=O)(=O)O (stereo partly shown) as well?
# output 0.00

# input Would you mind doing `CC1(C)[C@H](NC(=O)/C(=N\OCCOc2cnc(C(=N)N)c(O)c2)c2csc(N)n2)C(=O)N1OS(=O)(=O)O` as well?
# output 1.20

# input Would you mind doing `C[C@H]1[C@H](NC(=O)/C(=N\OCC(C)(C)Oc2ccc(C(=N)N)cc2)c2csc(N)n2)C(=O)N1S(=O)(=O)O` as well?
# output 1.20

# input Would you mind doing `C[C@H]1[C@H](NC(=O)/C(=N\OCCOc2ccc(C(=N)N)cc2COC=O)c2csc(N)n2)C(=O)N1S(=O)(=O)O` as well?
# output 1.20

# input Would you mind doing `CC1(C)[C@H](NC(=O)/C(=N\OCCOc2ccc(C(=N)NC3CNNC3)cc2)c2csc(N)n2)C(=O)N1OS(=O)(=O)O` as well?
# output 0.90

# input Would you mind doing `C[C@H]1[C@H](NC(=O)/C(=N\OCCNc2ccc(C(=N)N)cc2)c2csc(N)n2)C(=O)N1S(=O)(=O)O` as well?
# output 1.51

# input Would you mind doing CC1(C)[C@H](NC(=O)/C(=N\OC(CO)COc2ccc(C(=N)N)cc2)c2csc(N)n2)C(=O)N1OS(=O)(=O)O (mixture of isomers) [Example 45A] as well?
# output 1.20

# input Would you mind doing CC1(C)[C@H](NC(=O)/C(=N\OCCOc2ccc(C3=NCC(CN)N3)cc2)c2csc(N)n2)C(=O)N1OS(=O)(=O)O (stereo partly shown) as well?
# output 0.60

# input Would you mind doing `CC1(C)[C@H](NC(=O)/C(=N\O[C@H](COc2ccc(C(=N)NCCNc3ncccn3)cc2)C(=O)O)c2csc(N)n2)C(=O)N1OS(=O)(=O)O` as well?
# output 1.51

# input Would you mind doing `CC1(C)[C@H](NC(=O)/C(=N\OCCOc2ccc(C(=N)N)cc2)c2csc(N)n2)C(=O)N1OS(=O)(=O)O` as well?
# output 0.60

# input Would you mind doing `C[C@H]1[C@H](NC(=O)/C(=N\OC(C)(C)COc2ccc(C(=N)N)cc2)c2csc(N)n2)C(=O)N1S(=O)(=O)O` as well?
# output 0.60

###

- Test system: E. coli ATCC25922
- test-protocol: MIC determination, broth microdilution (CLSI)
- Format: cell-based
- experimental-setup: Escherichia coli, ATCC25922, strain 1
measured-metric: log10 MIC (log10 of the value in µg/mL)
Base-10 log of MIC, unit µg/mL.

# input I'm curious: which log10 MIC was measured for CC1(C)[C@H](NC(=O)/C(=N\OCCOc2ccc(C(=N)NCCN)nc2)c2csc(N)n2)C(=O)N1OS(=O)(=O)O [Example 82] tested on E. coli ATCC25922?
# output -0.60

# input Would you mind doing CC1(C)[C@H](NC(=O)/C(=N\OCCOc2ccc(C3=NCCN3)cc2)c2csc(N)n2)C(=O)N1OS(=O)(=O)O [Example 25] as well?
# output -0.90

# input Would you mind doing CNCCNC(=N)c1ccc(OC[C@H](O/N=C(\C(=O)N[C@@H]2C(=O)N(OS(=O)(=O)O)C2(C)C)c2csc(N)n2)C(=O)O)cc1 [Example 95] as well?
# output -0.90

# input Would you mind doing C[C@H]1[C@H](NC(=O)/C(=N\OCCOCc2cc(C(=N)N)cs2)c2csc(N)n2)C(=O)N1S(=O)(=O)O [Example 56] as well?
# output 0.30

# input Would you mind doing C[C@H]1[C@H](NC(=O)/C(=N\OCCOc2ccc(C(=N)NCCN)cc2)c2csc(N)n2)C(=O)N1OCS(=O)(=O)O [Example 77] as well?
# output -0.30

# input Would you mind doing CC1(C)[C@H](NC(=O)/C(=N\OCCCOc2ccc(C(=N)N)cc2)c2csc(N)n2)C(=O)N1OS(=O)(=O)O [Example 58] as well?
# output 0.30

# input Would you mind doing C[C@H]1[C@H](NC(=O)/C(=N\OCCOc2ccc(C(=N)NCCOC=O)cc2)c2csc(N)n2)C(=O)N1S(=O)(=O)O [Example 70] as well?
# output -0.90

# input Would you mind doing CC(C)(N)CNC(=N)c1ccc(OC[C@H](O/N=C(\C(=O)N[C@@H]2C(=O)N(OS(=O)(=O)O)C2(C)C)c2csc(N)n2)C(=O)O)cc1 [Example 94] as well?
# output -0.90

# input Would you mind doing C[C@H]1[C@H](NC(=O)/C(=N\OCCOc2ccc(CC(=N)N)cc2)c2csc(N)n2)C(=O)N1S(=O)(=O)O [Example 62] as well?
# output 0.00

# input Would you mind doing CC1(C)[C@H](NC(=O)/C(=N\OCCSc2ccc(C(=N)N)cc2)c2csc(N)n2)C(=O)N1OS(=O)(=O)O [Example 7] as well?
# output -0.30

# input Would you mind doing CC1(C)[C@H](NC(=O)/C(=N\OCCOc2cc(C(=N)N)ccn2)c2csc(N)n2)C(=O)N1OS(=O)(=O)O [Example 22] as well?
# output 0.00

# input Would you mind doing CC1(C)[C@H](NC(=O)/C(=N\OCC(Oc2ccc(C(=N)N)cc2)C(=O)O)c2csc(N)n2)C(=O)N1OS(=O)(=O)O (single isomer, unassigned) [Example 87A] as well?
# output 0.00

###

- System: S. aureus 133
- test-protocol: MIC determination, broth microdilution (CLSI)
- Format: cell-based
- experimental-setup: Staphylococcus aureus, 133, strain 11; read-out: strain 11 MIC
measured-metric: MIC

# input Given the entry `CC1(C)[C@H](NC(=O)/C(=N\OCCOc2ccc(C(=N)N)cc2)c2csc(N)n2)C(=O)N1OS(=O)(=O)O` , report its measured MIC.
# output ≤ 0.063 µg/mL

# input Would you mind doing `CC1(C)[C@H](NC(=O)/C(=N\O[C@@H](COc2ccc(C(=N)NC3CCNCC3)cc2)C(=O)O)c2csc(N)n2)C(=O)N1OS(=O)(=O)O` as well?
# output ≤ 0.063 µg/mL

# input Would you mind doing `C[C@H]1[C@H](NC(=O)/C(=N\OCCOc2ccc(C(=N)N)cc2)c2nc(N)sc2Cl)C(=O)N1S(=O)(=O)O` as well?
# output ≤ 0.063 µg/mL

# input Would you mind doing `CC1(C)[C@H](NC(=O)/C(=N\OCCOc2ccc(C(=N)NC3CNNC3)cc2)c2csc(N)n2)C(=O)N1OS(=O)(=O)O` as well?
# output ≤ 0.063 µg/mL

# input Would you mind doing `CC1(C)[C@H](NC(=O)/C(=N\OCCOc2ccc(C(=N)N)cc2)c2csc(N)n2)C(=O)N1OCS(=O)(=O)O` as well?
# output 0.5 µg/mL

# input Would you mind doing `C[C@H]1[C@H](NC(=O)/C(=N\OCC(C)(C)Oc2ccc(C(=N)N)cc2)c2csc(N)n2)C(=O)N1S(=O)(=O)O` as well?
# output 2 µg/mL

# input Would you mind doing CC1(C)[C@H](NC(=O)/C(=N\OCCOc2ccc(C3=NCC(N)CN3)cc2)c2csc(N)n2)C(=O)N1OS(=O)(=O)O (stereo partly shown) as well?
# output ≤ 0.063 µg/mL

# input Would you mind doing `CC1(C)[C@H](NC(=O)/C(=N\OCCOc2ccc(C(=N)NCC[N+]3(C)CCCC3)cc2)c2csc(N)n2)C(=O)N1OS(=O)(=O)O.O=C([O-])C(F)(F)F` as well?
# output ≤ 0.063 µg/mL

# input Would you mind doing `CN1CC(NC(=N)c2ccc(OC[C@H](O/N=C(\C(=O)N[C@@H]3C(=O)N(OS(=O)(=O)O)C3(C)C)c3csc(N)n3)C(=O)O)cc2)C1` as well?
# output ≤ 0.063 µg/mL

# input Would you mind doing CC1(C)[C@H](NC(=O)/C(=N\O[C@@H](COc2ccc(C(=N)NCC3CCCCN3)cc2)C(=O)O)c2csc(N)n2)C(=O)N1OS(=O)(=O)O (stereo partly shown) as well?
# output ≤ 0.063 µg/mL

Values were extracted from patent US9556165B2.
